Species on record: Rattus norvegicus
Measurement notes: Open TG-GATES - Regimen: Single
Type: toxicity, organism-based, Sprague-Dawley
Parameters: regimen Single, gender Male, age 6 weeks
Stated conditions: in vivo, po, 100 mg/kg, 9 h, tissue Plasma, route gavage, dose level Low
Quantity kind: A/G
Provide a numeric answer; units are not to be included.

Sample answers from the record:
Cpd smiles	Quantity kind	Value reported
O=C(OC[C@H]1O[C@@H](OC(=O)c2cc(O)c(O)c(OC(=O)c3cc(O)c(O)c(O)c3)c2)[C@H](OC(=O)c2cc(O)c(O)c(OC(=O)c3cc(O)c(O)c(O)c3)c2)[C@@H](OC(=O)c2cc(O)c(O)c(OC(=O)c3cc(O)c(O)c(O)c3)c2)[C@@H]1OC(=O)c1cc(O)c(O)c(OC(=O)c2cc(O)c(O)c(O)c2)c1)c1cc(O)c(O)c(OC(=O)c2cc(O)c(O)c(O)c2)c1	A/G	2
CN/C(=N/CCSCc1nc[nH]c1C)NC#N	A/G	1.6
Cc1nnc2n1-c1ccc(Cl)cc1C(c1ccccc1Cl)=NC2	A/G	0.9

Next up:
Fill in the blank: the reported A/G of CNC(=C[N+](=O)[O-])NCCSCc1ccc(CN(C)C)o1 is ____. 1.6

###

Organism: Rattus norvegicus
Measurement notes: Open TG-GATES - Regimen: Single
Type: toxicity, organism-based, Sprague-Dawley
Parameters: regimen Single, gender Male, age 6 weeks
Stated conditions: in vivo, po, 0 mg/kg, 3 h, tissue Kidney, route gavage, dose level Control
Quantity kind: KIDNEY_TOTAL (g)
Note: unit g is implicit; provide only the numeric part.

Sample answers from the record:
Molecule	Value reported
NC1=NC(=O)C(c2ccccc2)O1 (centres undefined)	1.9
Cc1nnc2n1-c1ccc(Cl)cc1C(c1ccccc1Cl)=NC2	1.6
O=C(OC[C@H]1O[C@@H](OC(=O)c2cc(O)c(O)c(OC(=O)c3cc(O)c(O)c(O)c3)c2)[C@H](OC(=O)c2cc(O)c(O)c(OC(=O)c3cc(O)c(O)c(O)c3)c2)[C@@H](OC(=O)c2cc(O)c(O)c(OC(=O)c3cc(O)c(O)c(O)c3)c2)[C@@H]1OC(=O)c1cc(O)c(O)c(OC(=O)c2cc(O)c(O)c(O)c2)c1)c1cc(O)c(O)c(OC(=O)c2cc(O)c(O)c(O)c2)c1	1.8

Next up:
Fill in the blank: the reported KIDNEY_TOTAL of Brc1ccccc1 is ____. 1.7

###

Organism: Rattus norvegicus
Measurement notes: Open TG-GATES - Regimen: Daily Repeat
Format: toxicity, organism-based, Sprague-Dawley
Set-up: regimen Daily Repeat, gender Male, age 6 weeks
Stated conditions: in vivo, po, 0 mg/kg, […], tissue Plasma, route gavage, dose level Control, time 28 day
Quantity kind: GLC (mg/dL)
Note: unit mg/dL is implicit; provide only the numeric part.

Sample answers from the record:
Molecule	Value reported
CCCc1cc(=O)[nH]c(=S)[nH]1	169.4
NC1=NC(=O)C(c2ccccc2)O1 (stereo not drawn)	182.2

Fill in the blank: the reported GLC of CN/C(=N/CCSCc1nc[nH]c1C)NC#N is ____. 235.6

Fill in the blank: the reported GLC of O=C(OC[C@H]1O[C@@H](OC(=O)c2cc(O)c(O)c(OC(=O)c3cc(O)c(O)c(O)c3)c2)[C@H](OC(=O)c2cc(O)c(O)c(OC(=O)c3cc(O)c(O)c(O)c3)c2)[C@@H](OC(=O)c2cc(O)c(O)c(OC(=O)c3cc(O)c(O)c(O)c3)c2)[C@@H]1OC(=O)c1cc(O)c(O)c(OC(=O)c2cc(O)c(O)c(O)c2)c1)c1cc(O)c(O)c(OC(=O)c2cc(O)c(O)c(O)c2)c1 is ____. 221.4

Fill in the blank: the reported GLC of CN(C)CCC(c1ccc(Cl)cc1)c1ccccn1 (stereo not drawn) is ____. 186.2

Fill in the blank: the reported GLC of CN1C(=O)CCS(=O)(=O)C1c1ccc(Cl)cc1 (stereo not drawn) is ____. 183.2

Fill in the blank: the reported GLC of Brc1ccccc1 is ____. 186.6

Fill in the blank: the reported GLC of Cc1nnc2n1-c1ccc(Cl)cc1C(c1ccccc1Cl)=NC2 is ____. 185.8
